# target.of.assay: 5'-AMP-activated protein kinase subunit beta-1 (Homo sapiens, UniProt Q9Y478)
# Sequence (Q9Y478 whole entry): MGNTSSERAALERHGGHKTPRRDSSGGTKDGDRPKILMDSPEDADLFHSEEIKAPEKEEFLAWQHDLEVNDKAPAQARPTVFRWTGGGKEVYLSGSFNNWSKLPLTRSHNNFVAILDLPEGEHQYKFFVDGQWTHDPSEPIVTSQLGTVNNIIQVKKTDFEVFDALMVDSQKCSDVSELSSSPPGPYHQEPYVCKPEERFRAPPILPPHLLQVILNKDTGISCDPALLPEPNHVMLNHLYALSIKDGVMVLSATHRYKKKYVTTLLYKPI
# protocol.notes: Inhibition of AMPK
measured.metric: pKi
Would you please state pKi, meaning minus log10 of the concentration in mol/L, as a bare number?

[ask] Which value of pKi has been reported for CCn1c2cc(Cl)c(O)cc2c(=O)c2c(=O)o[nH]c21 in the records?
[reply] 5.76

---

Entries below carry reported Ki on Serine/threonine-protein kinase pim-2 (Homo sapiens, UniProt Q9P1W9).
Sequence (Q9P1W9 whole entry): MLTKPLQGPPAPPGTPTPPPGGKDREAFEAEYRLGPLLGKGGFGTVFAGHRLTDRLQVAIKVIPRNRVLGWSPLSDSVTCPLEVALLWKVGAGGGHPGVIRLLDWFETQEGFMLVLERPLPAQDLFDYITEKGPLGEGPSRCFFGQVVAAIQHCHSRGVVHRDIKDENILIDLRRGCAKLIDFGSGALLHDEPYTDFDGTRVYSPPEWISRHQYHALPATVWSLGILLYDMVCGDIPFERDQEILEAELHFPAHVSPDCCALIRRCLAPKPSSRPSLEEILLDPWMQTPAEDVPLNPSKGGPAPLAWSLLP
Give just the numeric value; nM need not be written.

{"chemical.string": "CCCCn1c2cc(Cl)c(F)cc2c(=O)c2c(=O)o[nH]c21", "target.of.assay": "Serine/threonine-protein kinase pim-2 (Homo sapiens, UniProt Q9P1W9)", "display.unit": "nM", "Ki": 165}

Please look at the following molecule next.
[ask] Record O=c1o[nH]c2c1c(=O)c1cc(F)c(Cl)cc1n2Cc1ccccc1 : what is its Ki with Serine/threonine-protein kinase pim-2 (Homo sapiens, UniProt Q9P1W9)?
[reply] 558

---

# protocol.notes: Inhibition of Casein kinase 2
measured.metric: Ki (µM)
Please respond with the number in µM and leave the unit unwritten.

[ask] Which value of Ki has been reported for CCn1c2cc(Cl)c(O)cc2c(=O)c2c(=O)o[nH]c21 in the records?
[reply] 1.07

---

# protocol.notes: Inhibition of Aurora2
pKi: −log10 of the molar value.
measured.metric: pKi

[ask] Report pKi for CCn1c2cc(Cl)c(O)cc2c(=O)c2c(=O)o[nH]c21 please.
[reply] < 5.18

---

# protocol.notes: Inhibition of Aurora1
measured.metric: Ki

[ask] What value of measured Ki is listed for CCn1c2cc(Cl)c(O)cc2c(=O)c2c(=O)o[nH]c21 ?
[reply] > 6.88 µM

---

# target.of.assay: Serine/threonine-protein kinase MARK1 (Homo sapiens, UniProt Q9P0L2)
# Sequence (Q9P0L2 whole entry): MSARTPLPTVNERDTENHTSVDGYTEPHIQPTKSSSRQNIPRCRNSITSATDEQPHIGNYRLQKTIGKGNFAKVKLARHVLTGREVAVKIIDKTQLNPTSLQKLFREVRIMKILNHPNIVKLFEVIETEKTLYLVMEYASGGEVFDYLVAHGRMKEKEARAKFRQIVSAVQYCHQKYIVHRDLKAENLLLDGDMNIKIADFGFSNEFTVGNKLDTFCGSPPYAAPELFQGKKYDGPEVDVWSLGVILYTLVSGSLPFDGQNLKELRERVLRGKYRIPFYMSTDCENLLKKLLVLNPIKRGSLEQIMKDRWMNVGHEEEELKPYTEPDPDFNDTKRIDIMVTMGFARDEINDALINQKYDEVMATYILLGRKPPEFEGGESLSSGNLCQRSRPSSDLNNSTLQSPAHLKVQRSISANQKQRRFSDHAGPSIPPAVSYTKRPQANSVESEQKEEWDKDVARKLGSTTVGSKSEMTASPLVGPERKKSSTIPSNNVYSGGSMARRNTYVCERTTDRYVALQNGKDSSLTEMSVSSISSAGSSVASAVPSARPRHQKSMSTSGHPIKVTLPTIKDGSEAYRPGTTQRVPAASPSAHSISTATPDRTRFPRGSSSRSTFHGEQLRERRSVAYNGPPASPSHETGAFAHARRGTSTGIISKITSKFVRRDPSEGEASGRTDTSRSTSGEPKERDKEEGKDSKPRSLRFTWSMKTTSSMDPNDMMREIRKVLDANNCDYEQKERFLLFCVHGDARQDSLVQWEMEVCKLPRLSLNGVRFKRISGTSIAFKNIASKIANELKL
pKi: −log10 of the molar value.
measured.metric: pKi

[ask] Look up pKi with Serine/threonine-protein kinase MARK1 (Homo sapiens, UniProt Q9P0L2) for this compound: CCn1c2cc(Cl)c(O)cc2c(=O)c2c(=O)o[nH]c21
[reply] < 5.07

---

# protocol.notes: Inhibition of PKA
measured.metric: Ki

[ask] I am curious: what Ki value has been reported for CCn1c2cc(Cl)c(O)cc2c(=O)c2c(=O)o[nH]c21 ?
[reply] > 7.5 µM

---

// pKi lookup, one value per entry
# target.of.assay: Serine/threonine-protein kinase pim-2 (Homo sapiens)
pKi: −log10 of the molar value.

{"chemical.string": "CCn1c2cc(Cl)c(F)cc2c(=O)c2c(=O)on(Cc3cccc(O)c3)c21", "pKi": "< 5.85"}
{"chemical.string": "CCn1c2cc(Cl)c(F)cc2c(=O)c2c(=O)on(CCO)c21", "pKi": "< 5.85"}

Please turn your attention to the following entry.
[ask] Please tell me: pKi of CCn1c2cc(Cl)c(OC)cc2c(=O)c2c(=O)o[nH]c21 , system Serine/threonine-protein kinase pim-2 (Homo sapiens)?
[reply] < 5.85
